# assay.target: human EBP (Homo sapiens (Human), UniProt Q15125)
# measurement.notes: Competition binding assay (SPA, [3H]-Ifenprodil) to determine compound affinity to EBP
# recorded.conditions: [3H]-Ifenprodil 10 nM, HEK293 membrane overexpressing human EBP, Ki=IC50/(1+[L]/Kd); read-out: hEBP SPA Ki
pKi: −log10 of the molar value.
reported.property: pKi

Example cases with answers are listed next.
{"compound": "CC(C)n1cc(C(F)(F)F)nc1[C@H]1CC[C@H](N2CCC3(C2)CS(=O)(=O)C3)C1 (single isomer, unassigned) [20A*]", "pKi": 6.55}
{"compound": "CC(C)n1nc(-c2ccc(C(F)(F)F)nc2)nc1[C@@H]1CC[C@H](N2CCC3(C2)CS(=O)(=O)C3)C1 (single isomer, unassigned) [17A*]", "pKi": 7.66}
{"compound": "O=S1(=O)CC2(CCN([C@H]3CC[C@@H](c4cc(C(F)(F)F)nn4C4CCC4)CC3)C2)C1 [Compound 23A]", "pKi": 7.59}

1: Cn1nc(C(F)(F)F)cc1[C@H]1CC[C@@H](N2CCC3(CC2)CS(=O)(=O)C3)CC1 [Compound 25A]
2: O=S1(=O)CC2(CCN([C@H]3CC[C@H](c4ccc(C(F)(F)F)cc4)CC3)C2)C1
3: O=S1(=O)CC2(CCN([C@H]3CC[C@@H](c4ccc(C(F)(F)F)cc4)CC3)C2)C1
-- ask Place the items in sequence of falling pKi. Respond with the label ranking, as requested.
-- reply 2, 3, 1
(2: 7.70, 3: 7.21, 1: 6.96)

P: CC(C)n1nc(-c2cncc(C(F)(F)F)c2)cc1[C@@H]1CC[C@H](N2CCC3(C2)CS(=O)(=O)C3)C1 (single isomer, unassigned) [13B*]
Q: CC(C)n1nc(C(F)(F)F)cc1[C@@H]1CC[C@@H](N2CCC3(C2)CS(=O)(=O)C3)C1 (single isomer, unassigned) [10D*]
-- ask So which one has the bigger pKi here, P or Q ? Answer by quoting the chosen item's label.
-- reply P

1: O=S1(=O)CC2(CCN([C@H]3CC[C@H](c4cc(C(F)(F)F)n(C5CCC5)n4)CC3)C2)C1
2: CC(C)n1nc(-c2cncc(C(F)(F)F)c2)cc1[C@H]1CC[C@@H](N2CCC3(C2)CS(=O)(=O)C3)C1 (single isomer, unassigned) [13A*]
-- ask Decide: 1 or 2 , by lowest recorded pKi. Answer by quoting the chosen item's label.
-- reply 1
(1: 7.55, 2: 7.82)

I: CC(C)n1nc(C(F)(F)F)cc1[C@H]1CC[C@@H](N2CCC3(C2)CS(=O)(=O)C3)C1 (single isomer, unassigned) [10B*]
II: Cc1cc(C(F)(F)F)ncc1[C@H]1CC[C@H](N2CCC3(C2)CS(=O)(=O)C3)CC1 [Compound 21B]
-- ask So which one has the bigger pKi here, I or II ? Answer by quoting the chosen item's label.
-- reply I

* * *

# assay.target: human emopamil binding protein and human 7-dehydrocholesterol reductase co-expressing cells (hEBP-DHCR7 membrane) (Homo sapiens (Human))
# Sequence (Q15125 whole entry): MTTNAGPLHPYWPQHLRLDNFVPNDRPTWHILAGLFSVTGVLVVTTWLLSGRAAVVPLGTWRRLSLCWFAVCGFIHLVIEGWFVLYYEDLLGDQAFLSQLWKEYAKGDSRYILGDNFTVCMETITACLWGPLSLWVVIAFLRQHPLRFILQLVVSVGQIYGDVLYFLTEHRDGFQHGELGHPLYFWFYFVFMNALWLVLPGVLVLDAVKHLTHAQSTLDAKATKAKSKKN
pKi: −log10 of the molar value.
reported.property: pKi

Example cases with answers are listed next.
{"molecule": "O=S1(=O)CC2(CCN([C@H]3CCCN(c4ccc(C(F)(F)F)cc4)C3)C2)C1 (single isomer, unassigned) [22B*]", "quantitative.readout": 7.24}
{"molecule": "Cn1nc(C(F)(F)F)cc1[C@H]1CC[C@H](N2CC[C@@]3(CCS(=O)(=O)C3)C2)CC1 (single isomer, unassigned) [27A*]", "quantitative.readout": 6.59}
{"molecule": "O=S1(=O)CC2(CCN([C@@H]3CCC[C@@H](c4ccc(C(F)(F)F)nc4)C3)CC2)C1 (single isomer, unassigned) [56D*]", "quantitative.readout": 7.19}
{"molecule": "CC(C)n1nc(-c2cncc(OC(F)F)c2)cc1[C@H]1CC[C@@H](N2CCC3(C2)CS(=O)(=O)C3)CC1 [Compound 33B]", "quantitative.readout": 7.55}
{"molecule": "CC(C)n1nc(C(F)(F)F)cc1[C@H]1CC[C@H](N2CCC3(C2)CS(=O)(=O)C3)C1 (single isomer, unassigned) [10A*]", "quantitative.readout": 7.73}
{"molecule": "O=S1(=O)CCC2(CCN([C@H]3CC[C@H](c4ccc(C(F)(F)F)cn4)CC3)C2)CC1 [84B*]", "quantitative.readout": 7.16}

a: CC(C)n1nc(C(F)(F)F)cc1[C@H]1CC[C@@H](N2CCC3(C2)CS(=O)(=O)C3)CC1 [Compound 8B]
b: Cn1nc(C(F)(F)F)cc1[C@H]1CC[C@H](N2CCC3(CC2)CS(=O)(=O)C3)CC1 [Compound 25B]
-- ask Decide: a or b , by lowest recorded pKi. Answer by quoting the chosen item's label.
-- reply b

a: O=S1(=O)CC2(CCN([C@@H]3CO[C@H](c4ccc(C(F)(F)F)cc4)C3)C2)C1 (stereo in doubt) [19C*]
b: CC(C)n1nc(-c2ccc(C(F)(F)F)cc2)nc1[C@@H]1CC[C@H](N2CCC3(C2)CS(=O)(=O)C3)C1 (single isomer, unassigned) [53C*]
-- ask Decide: a or b , by lowest recorded pKi. Answer by quoting the chosen item's label.
-- reply a
(a: 7.74, b: 8.00)

A: O=S1(=O)CC2(CCN([C@@H]3CO[C@@H](c4ccc(C(F)(F)F)cc4)C3)C2)C1 (stereo in doubt) [19B*]
B: CCn1nc(-c2ccc(C(F)(F)F)nc2)nc1[C@H]1CC[C@H](N2CCC3(C2)CS(=O)(=O)C3)CC1 [36A*]
-- ask Decide: A or B , by lowest recorded pKi. Answer by quoting the chosen item's label.
-- reply B
(B: 7.21, A: 7.70)

P: O=S1(=O)CC2(CCN([C@H]3CC[C@@H](c4ccc(C(F)(F)F)cc4)CC3)C2)C1 [Compound 3B]
Q: O=S1(=O)CC2(CCN(C3CCN(c4ncc(C(F)(F)F)cc4Cl)CC3)C2)C1 [Compound 30]
-- ask Decide: P or Q , by lowest recorded pKi. Answer by quoting the chosen item's label.
-- reply P
(P: 7.56, Q: 7.89)

Hello, the source for this data is patent US20240398781A1, in case you need it.
